The values you see were collected from PubChem BioAssay AID1159580.

assayInfo: chemical genetic growth profiling, strain panel (AID 1159580);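 further: tested at 20 µM; growth read once vehicle control cultures reached saturation at 30 °C; lower values mean less growth of the strain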
conditionDescription: S. cerevisiae deletion strains, growth OD, locus YOR106W, strain vam3
Screen size: about 5,500 compounds; about 2,000 (36%) were called active. Another 18% or so got no clear call; they are omitted. No stated cut-off is given here; in the data, active means normalized growth mostly below about 0.91 (no sharp cut-off); inconclusive means no clear call, values can overlap the other calls; inactive means mostly above about 0.92. Some of the results follow.
Pick one and only one: active, inactive

Query: I would be grateful if you could indicate the recorded call for C=C1C2CC[C@@]3(C)[C@H](c4ccoc4)OC(=O)C[C@]13O[C@H]1CC(=O)C(C)(C)[C@H](C(OC(C)=O)C(=O)OC)[C@@]21C (stereo partly drawn) .
Reply: inactive

Query: Name the outcome recorded for CC1(O)CC2C(CC1O)C2(C)C (stereo not drawn) in the assay.
Reply: inactive

Query: Hi, do you know how COc1cc2nc(N(C)CCCNC(=O)C3CCCO3)nc(N)c2cc1OC (stereo not drawn) came out in this test?
Reply: inactive

Query: Hi, do you know how C=C[C@@](C)(O)CCC1C(=C)CCC2[C@@](C)(CO)CCC[C@]12C (stereo partly drawn) came out in this test?
Reply: inactive

Query: // return assay outcome for CC[C@@]1(O)C[C@H](O)c2c(cc3c(c2O)C(=O)c2c(O)ccc(O)c2C3=O)[C@H]1C(=O)OC
Reply: active

Query: Could you check what this test reported for Cc1ccc(C(=O)Nc2ccc(S(=O)(=O)O)c3cc(S(=O)(=O)O)cc(S(=O)(=O)O)c23)cc1NC(=O)c1cccc(NC(=O)Nc2cccc(C(=O)Nc3cc(C(=O)Nc4ccc(S(=O)(=O)O)c5cc(S(=O)(=O)O)cc(S(=O)(=O)O)c45)ccc3C)c2)c1 ?
Reply: inactive

Query: Could you please tell me the result logged for CN(C)CCN(Cc1ccccc1)c1ccccn1 in this assay?
Reply: inactive

Query: Each compound tested received a call. Report the one for C=C1CCC2[C@](C)(CO)[C@H](O)CC[C@@]2(C)[C@@H]1C/C=C1/C(=O)OC[C@H]1O (stereo partly drawn) .
Reply: inactive

Query: Recorded call for C[C@]12CCC(=O)C=C1C=CC1C2CC[C@@]2(C)C1CC[C@@]21CCC(=O)O1 (stereo partly drawn) ?
Reply: inactive

Query: Hi, sorry to bother you, what did the test record for COc1ccc([C@H]2Oc3c(I)c(OC)cc(OC)c3C[C@@H]2O)cc1OC ?
Reply: inactive

Query: Name the outcome recorded for CCC[C@H](N[C@@H](C)C(=O)N1[C@H](C(=O)O)C[C@@H]2CCCC[C@@H]21)C(=O)OCC in the assay.
Reply: inactive

Query: Assay outcome for COc1ccc(C(c2ccc(OC)cc2)C(Cl)(Cl)Cl)cc1 : what was it?
Reply: inactive

Query: Returns: the outcome recorded for Oc1cc(O)c2c(c1)O[C@H](c1cc(O)c(O)c(O)c1)[C@H](O)C2 in this assay.
Reply: inactive

Query: Hi team, can someone confirm the assay call for COc1cc([C@@H]2c3cc4c(cc3[C@@H](O)C3COC(=O)C32)OCO4)cc(OC)c1O (stereo partly drawn) ?
Reply: inactive

Query: Hi, sorry to bother you, what did the test record for CC[C@@]1(O)C[C@H](O[C@H]2C[C@H](N(C)C)[C@H](O)[C@H](C)O2)c2c(cc3c(c2O)C(=O)c2c(O)cccc2C3=O)[C@H]1C(=O)OC ?
Reply: active

Query: Tell me the assay call for COc1ccc(CN(CCN(C)C)c2ccccn2)cc1 please.
Reply: inactive

Query: Dear all, I need the recorded test outcome for C=C[C@@](C)(O)CCC1C(=C)C[C@H](OC(C)=O)C2C(C)(C)CCCC12C (stereo partly drawn) , thank you.
Reply: inactive

Query: recorded result category for C=C[C@@](C)(O)CCC1C(=C)C[C@H](O)C2C(C)(C)CCCC12C (stereo partly drawn) in this test
Reply: inactive
